target: human TLR2 (Homo sapiens (Human), UniProt O60603); experiment: human TLR2-specific NF-κB reporter gene assay (HEK-Blue cells); type: cell-based; conditions: human TLR2-specific reporter gene assay; ND = no activity detected at 10 μM; read-out: TLR2-Agonistic Activity (EC50 in nM)
Sequence (O60603 21-784): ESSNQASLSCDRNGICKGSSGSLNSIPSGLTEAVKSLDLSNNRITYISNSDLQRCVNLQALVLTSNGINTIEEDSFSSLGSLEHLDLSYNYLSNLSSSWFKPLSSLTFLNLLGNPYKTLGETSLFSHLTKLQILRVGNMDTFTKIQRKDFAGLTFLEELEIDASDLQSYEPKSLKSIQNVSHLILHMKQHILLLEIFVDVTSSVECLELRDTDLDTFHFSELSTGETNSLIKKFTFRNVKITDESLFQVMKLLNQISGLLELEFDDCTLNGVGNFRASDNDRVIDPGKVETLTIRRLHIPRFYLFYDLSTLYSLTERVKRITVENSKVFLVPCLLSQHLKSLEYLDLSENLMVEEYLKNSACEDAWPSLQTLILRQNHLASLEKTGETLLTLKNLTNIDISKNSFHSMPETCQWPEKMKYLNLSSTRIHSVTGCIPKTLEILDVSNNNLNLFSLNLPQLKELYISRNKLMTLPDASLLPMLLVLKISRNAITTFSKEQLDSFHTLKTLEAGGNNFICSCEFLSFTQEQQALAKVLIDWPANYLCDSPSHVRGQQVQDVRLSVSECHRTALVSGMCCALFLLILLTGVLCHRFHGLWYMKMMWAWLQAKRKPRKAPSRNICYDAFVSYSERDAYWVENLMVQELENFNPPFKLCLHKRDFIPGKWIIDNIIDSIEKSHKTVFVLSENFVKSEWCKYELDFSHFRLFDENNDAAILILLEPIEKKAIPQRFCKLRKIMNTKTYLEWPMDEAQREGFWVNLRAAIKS
Measured EC50 values are reported for all entries that follow.
measuredProperty: EC50 (nM)

>>> print(df.to_string())
                                   compound  comparativesign  testresult
0  CCCCCCCCCCCCCCN(CCCCCCCCCCCCCC)CC(=O)OCCSC[C@H](N)C(=O)N[C@@H](CO)C(=O)OC [Compound 10a]                >       10000
1  CCCCCCCCCCC[C@H](CC(=O)OCCSC[C@H](NC(C)=O)C(=O)N[C@@H](CO)C(=O)OC)OC(=O)CCCCCCC [Compound 85]                =        3.08
2  CCCCCCCCCCCCCCCCCC(=O)OCCSC[C@H](N)C(=O)N[C@@H](CO)C(=O)OC [Compound 6e]                =        4.79
3  CCCCCCCCCCCCCCCC(=O)OCCSC[C@H](NC(=O)CCCCCCC)C(=O)N[C@@H](CO)C(=O)OC [Compound 11f]                =         3.8

* * *

target: human TLR2 (Homo sapiens (Human), UniProt O60603); assay: human TLR2-specific NF-κB reporter gene assay (HEK-Blue cells); format: cell-based; settings: human TLR2-specific reporter gene assay; ND = no activity detected at 10 μM; read-out: TLR2-Agonistic Activity (EC50 in nM)
Parameter EC50: see the listing below.
measuredProperty: EC50 (nM)

                                   compound  units  comparativesign  testresult
0  CCCCCCCCCCCCCCCC(=O)OCCSC[C@H](NC(C)=O)C(=O)N[C@@H](COC(=O)CCC(=O)O)C(=O)OC     nM                =       0.518
1  CCCCCCCCCCCCCCNCC(=O)OCCSC[C@H](N)C(=O)N[C@@H](CO)C(=O)OC [Compound 10b]     nM                >       10000
2  CCCCCCCCCCCCCCCC(=O)OCCSC[C@H](N)C(=O)N[C@@H](COC(=O)CCCCCCCCCCCCCCC)C(=O)OC [Compound 14c]     nM                =        5.95
3  CCCCCCCCCCCCCCCC(=O)OCCSC[C@H](NC(=O)C(Cl)(Cl)Cl)C(=O)N[C@@H](CO)C(=O)OC [Compound 11i]     nM                >       10000
4  CCCCCCCCCCC[C@H](CC(=O)OCCSC[C@H](NC(C)=O)C(=O)N[C@@H](CO)C(=O)OC)OC(C)=O     nM                =       0.182
5  CCCCCCCCCCCCCCCC(=O)OCCSC[C@H](NS(=O)(=O)c1ccc(C)cc1)C(=O)N[C@@H](CO)C(=O)OC [Compound 11l]     nM                >       10000
6  CCCCCCCCCCC[C@H](CC(=O)OCCSC[C@H](NC(C)=O)C(=O)N[C@@H](CO)C(=O)OC)OC(=O)CCC     nM                =       0.345

* * *

Listing: EC50 of selected compounds
biological target: human TLR2 (Homo sapiens (Human)); test: human TLR2-specific NF-κB reporter gene assay (HEK-Blue cells); assay type: cell-based; conditions: human TLR2-specific reporter gene assay; ND = no activity detected at 10 μM; read-out: TLR2-Agonistic Activity (EC50 in nM)
measuredProperty: EC50 (nM)

In [3]: df
Out[3]:
                               smilesrecord  measuredproperty  comparativesign  testresult
0  CCCCCCCCCCCCCCCC(=O)OCCSC[C@H](NC(C)=O)C(=O)N[C@@H](CCCCN)C(=O)OC              EC50                =       0.225
1  COC(=O)[C@H](CO)NC(=O)[C@@H](N)CSCCOC(=O)c1ccc(-c2ccccc2)cc1              EC50                >       10000
2  CCCCCCCC(=O)OCCSC[C@H](N)C(=O)N[C@@H](CO)C(=O)OC              EC50                >       10000
3  CCCCCCCCCCCCCCCCOC(=O)NCCSC[C@H](NC(C)=O)C(=O)N[C@@H](CO)C(=O)OC              EC50                =      0.0615
4  CCCCCCCCCCC[C@H](CC(=O)OCCSC[C@H](NC(C)=O)C(=O)N[C@@H](CO)C(=O)OC)OC(=O)CCCCCCCCC              EC50                =        12.9
5  CCCCCCCCCCCC(=O)O[C@H](CCCCCCCCCCC)CC(=O)OCCSC[C@H](NC(C)=O)C(=O)N[C@@H](CO)C(=O)OC              EC50                =        20.7
6  CCCCCCCCCCCCCCCC(=O)OCCSC[C@H](NC(C)=O)C(=O)N[C@@H](COC(=O)c1cccnc1)C(=O)OC              EC50                =        1.27

* * *

biological target: human TLR2 (Homo sapiens (Human), UniProt O60603); experiment: human TLR2-specific NF-κB reporter gene assay (HEK-Blue cells); format: cell-based; details: human TLR2-specific reporter gene assay; ND = no activity detected at 10 μM; read-out: TLR2-Agonistic Activity (EC50 in nM)
measuredProperty: EC50

In [3]: df
Out[3]:
                                   compound  testresult
0  CCCCCCCCCCCCCCCCN[C@@H](CSCCOC(=O)CCCCCCCCCCCCCCC)C(=O)N[C@@H](CO)C(=O)OC [Compound 11c]  > 10000 nM
1  CCCCCCCCCCCCCCCC(=O)OCCSC[C@H](NS(=O)(=O)C(F)(F)F)C(=O)N[C@@H](CO)C(=O)OC [Compound 11k]  > 10000 nM
2  CCCCCCCCCCCCCCCC(=O)N[C@@H](CSCCOC(=O)CCCCCCCCCCCCCCC)C(=O)N[C@@H](CO)C(=O)OC [Compound 11g]  > 10000 nM
3  CCCCCCCCCCCCCC(=O)O[C@H](CCCCCCCCCCC)CC(=O)OCCSC[C@H](NC(C)=O)C(=O)N[C@@H](CO)C(=O)OC     9.52 nM
4  CCCCCCCCCCCCCCCC(=O)OCCSC[C@H](NS(C)(=O)=O)C(=O)N[C@@H](CO)C(=O)OC [Compound 11j]  > 10000 nM
5  CCCCCCCCCCCCCCCC(=O)OCCSC[C@H](NC(C)=O)C(=O)N[C@@H](COC(=O)[C@@H](N)CCCCN)C(=O)OC.Cl.Cl     6.81 nM
6  CCCCCCCCCCC[C@H](CC(=O)OCCSC[C@H](NC(C)=O)C(=O)N[C@@H](CO)C(=O)OC)OC=O    0.808 nM
7  CCCCCCCCCCC[C@H](CC(=O)OCCSC[C@H](NC(C)=O)C(=O)N[C@@H](CO)C(=O)OC)OC(=O)CCCCC      1.5 nM

These measurements were taken from patent US9676818B2.
